TARGET UNDER TEST: GABA-A receptor; alpha-1/beta-2/gamma-2 (Rattus norvegicus) (UniProt P18508+P62813+P63138)
METHOD: Activity at rat GABA-Aalpha1 receptor plus beta-2-gamma-2L expressed in Xenopus laevis oocyte assessed as ratio of GABA-mediated current in presence to absence of compound at 0.1 uM
Type: functional
Below, each entry is listed with its recorded Ratio.
Just the number.

Illustrative cases are given below, each with its answer.
C[C@]12C[C@H]3CC[C@@H](CCO)CC3C[C@@H]1CCC2=O (single isomer, unassigned; 1b) = 0.9
C[C@]12C[C@H]3CC[C@H](CCO)CC3C[C@@H]1CCC2=O (single isomer, unassigned; 1d) = 1.02
C[C@]12C[C@H]3CC[C@@H](CCO)CC3C[C@@H]1CC[C@@H]2C#N (single isomer, unassigned; 2b) = 1.02

Okay, next one:
Ask | What measured Ratio goes with `CC(=O)[C@H]1CC[C@H]2[C@@H]3CC[C@@H](CCO)C[C@H]3CC[C@]12C` ?
Reply | 0.91

###

Overview of reported log10(IC50) across a group of molecules:
TARGET UNDER TEST: GABA-A receptor; anion channel
METHOD: Displacement of [35S]TBPS from GABA-A receptor in rat brain membrane
Scale type: logarithmic (base 10). Underlying IC50 unit: µM.

Known log10(IC50) results, listed for orientation:
CC(=O)[C@H]1CC[C@H]2[C@@H]3CC[C@H](CCO)C[C@H]3CC[C@]12C = -0.89
C[C@]12CC[C@@H](O)C[C@@H]1CC[C@@H]1[C@@H]2CC[C@]2(C)C(=O)CC[C@@H]12 [ANDROSTERONE] = -0.39
C[C@]12CC[C@@H](O)C[C@H]1CC[C@@H]1[C@@H]2CC[C@]2(C)C(=O)CC[C@@H]12 [ETIOCHOLANOLONE] = 0.62
C[C@]12CC[C@@H](O)C[C@@H]1CC[C@@H]1[C@@H]2CC[C@]2(C)[C@@H](C#N)CC[C@@H]12 = -1.30
C[C@]12CC[C@@H]3C[C@H](CCO)CC[C@H]3[C@@H]1CC[C@@H]2C#N = -0.24

Then there is this molecule:
Ask | Dear colleague, I am looking for the recorded log10(IC50) of the following molecule: C[C@]12C[C@H]3CC[C@H](CCO)CC3C[C@@H]1CCC2=O (single isomer, unassigned; 1a)
Reply | 0.70

###

TARGET UNDER TEST: GABA-A receptor; alpha-1/beta-2/gamma-2 (Rattus norvegicus) (UniProt P18508+P62813+P63138)
METHOD: Activity at rat GABA-Aalpha1 receptor plus beta-2-gamma-2L expressed in Xenopus laevis oocyte assessed as ratio of GABA-mediated current in presence to absence of compound at 0.1 uM
Format: functional
Label t when Ratio is strictly below 1; otherwise label f.

A selection of reference data follows.
C[C@]12CC[C@@H](O)C[C@@H]1CC[C@@H]1[C@@H]2CC[C@]2(C)C(=O)CC[C@@H]12 [ANDROSTERONE] = t
CC(=O)[C@H]1CC[C@H]2[C@@H]3CC[C@@H]4C[C@H](O)CC[C@]4(C)[C@H]3CC[C@]12C [ELTANOLONE] = f
C[C@]12CC[C@@H]3C[C@@H](CCO)CC[C@H]3[C@@H]1CCC2=O = t
C[C@]12CC[C@@H](O)C[C@@H]1CC[C@@H]1[C@@H]2CC[C@]2(C)[C@@H](C#N)CC[C@@H]12 = f
C[C@]12C[C@H]3CC[C@@H](CCO)CC3C[C@@H]1CCC2=O (single isomer, unassigned; 1c) = t

Below: the item to evaluate.
Ask | Here's an entry: `C[C@]12CC[C@@H](O)C[C@H]1CC[C@@H]1[C@@H]2CC[C@]2(C)[C@@H](C#N)CC[C@@H]12` . Is its Ratio below 1?
Reply | f
